Catalogue of binders with associated Kd
biological target: T1, C-terminally 6xHis tagged mouse PTPRS (mPTPRS) ECD (Mus musculus, UniProt B0V2N1); experiment: BLI; His-tagged ligand (mPTPRS ECD or hPTPRS Fn9) immobilised on anti-6xHis probes at 100 to 200 nM; antibodies or scFv-Fc fusions as analytes; Gator K buffer (0.02% BSA, 0.002% Tween-20 in PBS, pH 7.4), 37 °C; biphasic (2:1) association model; conditions: both partners purified
T1 construct: also called mPTPRS ectodomain; PTPRS ectodomain; source: HEK293T, transiently transfected, supernatant; purified (Ni-NTA, HiTrap heparin); not shown: His6, C-terminal, kept
T1 sequence (B0V2N1 30-1257): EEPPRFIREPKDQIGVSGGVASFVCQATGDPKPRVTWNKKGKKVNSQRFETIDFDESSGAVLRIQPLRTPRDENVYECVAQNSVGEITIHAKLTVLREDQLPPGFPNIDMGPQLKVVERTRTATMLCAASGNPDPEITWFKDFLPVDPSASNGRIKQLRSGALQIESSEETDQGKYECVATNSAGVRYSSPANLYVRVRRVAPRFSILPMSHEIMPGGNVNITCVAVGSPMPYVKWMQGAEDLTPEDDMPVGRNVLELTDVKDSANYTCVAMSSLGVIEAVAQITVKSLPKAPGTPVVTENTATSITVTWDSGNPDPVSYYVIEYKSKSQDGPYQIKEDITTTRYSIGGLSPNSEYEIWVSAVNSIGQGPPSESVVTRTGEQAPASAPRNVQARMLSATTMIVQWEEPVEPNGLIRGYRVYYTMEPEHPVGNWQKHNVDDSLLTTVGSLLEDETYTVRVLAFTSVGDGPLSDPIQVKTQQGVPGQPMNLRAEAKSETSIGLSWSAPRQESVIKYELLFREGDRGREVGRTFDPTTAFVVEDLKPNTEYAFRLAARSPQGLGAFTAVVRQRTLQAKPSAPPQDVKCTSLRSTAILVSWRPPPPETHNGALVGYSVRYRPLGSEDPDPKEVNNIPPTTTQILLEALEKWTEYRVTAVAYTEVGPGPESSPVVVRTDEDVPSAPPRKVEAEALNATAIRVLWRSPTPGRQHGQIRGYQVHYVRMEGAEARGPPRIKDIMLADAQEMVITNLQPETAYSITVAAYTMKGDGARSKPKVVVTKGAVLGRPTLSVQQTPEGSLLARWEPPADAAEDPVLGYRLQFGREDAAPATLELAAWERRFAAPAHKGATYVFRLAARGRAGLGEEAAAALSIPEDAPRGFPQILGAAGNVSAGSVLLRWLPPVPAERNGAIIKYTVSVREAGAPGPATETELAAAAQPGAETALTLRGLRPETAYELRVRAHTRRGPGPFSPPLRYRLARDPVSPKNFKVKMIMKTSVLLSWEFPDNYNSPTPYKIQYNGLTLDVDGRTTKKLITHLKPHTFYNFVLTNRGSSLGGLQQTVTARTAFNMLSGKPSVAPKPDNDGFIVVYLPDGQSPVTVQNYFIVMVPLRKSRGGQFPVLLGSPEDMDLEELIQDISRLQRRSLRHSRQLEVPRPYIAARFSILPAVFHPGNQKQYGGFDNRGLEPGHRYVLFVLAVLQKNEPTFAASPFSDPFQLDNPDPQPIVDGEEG
Field format: number, assumed µM, no unit text.

Sample answers from the record:
22H8^IgG2b (22H8 variable regions on mouse IgG2b/κ constant regions) (antibody, V domains shown, as the VH of m3 (22H8); constant region of the mouse IgG2b heavy chain (entire constant region swapped); as the VL of m3 (22H8); constant region of the mouse κ light chain; IgG2b/κ form of 22H8; source: production contracted to Viva Biotech) VH: QVQLQQSGAELARPGASVKLSCKASGYTFTSYWMQWVKQRPGQGLEWIGAIYPGDGDTRYTQKFKGKATLTADKSSSTAYMQLSSLASEDSAVYYCARRIYYGYYYAMDYWGQGTSVTVSS VL: DIVLTQSPASLAVSLGQRATISCKASQSVDYDGDSYMNWYQQKPGQPPKLLIYAASNLESGIPARFSGSGSGTDFTLNIHPVEEEDAATYYCQQSNEDPLTFGAGTKLELK : 0.0382
13G5 (mouse monoclonal antibody, IgG2b/κ) (antibody, V domains shown, VH of 13G5; constant region of the mouse IgG2b heavy chain; VL of 13G5; constant region of the mouse κ light chain; IgG2b/κ; also called anti-PTPRS Ab 13G5; source: production contracted to Viva Biotech) VH: EVKLVESGGGLVQPGGSLKLSCATSGFTFSDYYMYWVRQTPEKRLEWVAYISNGGGSTYYPDTVKGRFTISRDNAKNTLYLQMSRLKSEDTAMYYCARHVYYGRNYAMDYWGQGTSVTVSS VL: DIQMTQTTSSLSASLGDRVTISCRASQDISNYLNWYQQKPDGTVKLLIYYTSRLHSGVPSRFSGSGSGTDYSLTISNLEQEDIATYFCQQGNTLPYTFGGGTKLEIK : 0.122

Let me know recorded Kd for 49F2 (mouse monoclonal antibody, IgG1/κ) (antibody, V domains shown, VH of 49F2; constant region of the mouse IgG1 heavy chain; VL of 49F2; constant region of the mouse κ light chain; IgG1/κ; source: production contracted to Viva Biotech) VH: EVQLVESGGDLVKPGGSLKLSCAASGFIFSSYGMSWVRQTPDKRLEWVATISSGGSDTYYPDSVKGRFTISRDNANNTLYLQMSSLKSEDTAMYYCARQVYYGLYWYFDVWGAGTTVTVSS VL: DIVMTQSHKFMSTSVGDRVSIICKASQDVNTAVAWYQQKPGQSPKLLIYSASYRYTGVPDRFTGSGSGTDFTFTISSVQAEDLAIYYCQQHYSTPYTFGGGTKLEIK , thanks.
0.0257
